- Test system: HeLa
- procedure summary: Cytotoxicity against human HeLa cells after 72 hrs by XTT assay
- Format: functional, cell-based
Checkbox rule: IC50 lower than 400 nM = true; IC50 not lower than 400 nM = false.

COc1ccc(/C(=N\N)c2ccc3c(ccn3C)c2)c(OC)c1OC: false
COc1ccc(C(=O)c2ccc3c(ccn3C)c2)c(OC)c1OC: true
CCn1ccc2cc(C(=O)c3ccc(OC)c(OC)c3OC)ccc21: false
COc1ccc(/C(=N\O)c2ccc3c(ccn3C)c2)c(OC)c1OC: true

### Prompt Hello, I'm reviewing records and need to know if IC50 of CN/N=C(/c1ccc2c(ccn2C)c1)c1ccc(OC)c(OC)c1OC is below 400 nM. Could you check?
### Response false

### Prompt Hello, I'm reviewing records and need to know if IC50 of COc1ccc(/C(=N\OC(C)=O)c2ccc3c(ccn3C)c2)c(OC)c1OC is below 400 nM. Could you check?
### Response false

### Prompt Hello, I'm reviewing records and need to know if IC50 of COc1ccc(C(O)c2ccc3c(ccn3C)c2)c(OC)c1OC (stereo unspecified) is below 400 nM. Could you check?
### Response false

### Prompt Hello, I'm reviewing records and need to know if IC50 of CCn1ccc2cc(/C(=N/O)c3ccc(OC)c(OC)c3OC)ccc21 is below 400 nM. Could you check?
### Response false

### Prompt Hello, I'm reviewing records and need to know if IC50 of COc1ccc(/C(=N\NC(C)=O)c2ccc3c(ccn3C)c2)c(OC)c1OC is below 400 nM. Could you check?
### Response false

### Prompt Hello, I'm reviewing records and need to know if IC50 of CCn1ccc2cc(/C(=N\NC)c3ccc(OC)c(OC)c3OC)ccc21 is below 400 nM. Could you check?
### Response true
